- target: T1, human GPCR135 (human, UniProt Q9NSD7 1-469)
- T1 sequence: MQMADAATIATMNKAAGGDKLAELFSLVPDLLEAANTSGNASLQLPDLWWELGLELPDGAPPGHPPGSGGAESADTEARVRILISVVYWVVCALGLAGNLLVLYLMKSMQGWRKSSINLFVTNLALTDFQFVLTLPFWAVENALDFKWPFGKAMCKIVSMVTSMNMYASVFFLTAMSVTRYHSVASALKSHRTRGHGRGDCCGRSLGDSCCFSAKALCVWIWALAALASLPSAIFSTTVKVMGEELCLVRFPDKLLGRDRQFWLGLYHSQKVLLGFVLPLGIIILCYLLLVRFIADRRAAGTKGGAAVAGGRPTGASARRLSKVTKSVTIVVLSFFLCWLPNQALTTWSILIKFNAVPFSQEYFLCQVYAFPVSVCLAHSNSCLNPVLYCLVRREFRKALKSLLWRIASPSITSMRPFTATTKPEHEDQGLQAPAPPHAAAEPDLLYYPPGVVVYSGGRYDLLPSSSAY
- assay_explanation: cell-based or functional assay
Ends that are not written are not given here.
measurement_kind: EC50, inhibition of forskolin stimulated β-galactosidase expression (nM)
Numbers only, in nM.

Relaxin-3/Relaxin-2 (R3/R2) chimeric polypeptide (ligand, human, disulfide (positions not given here); also: two chains joined by disulfide bonds, pairing not given here, domain: A-chain; Two chains joined by disulfide bonds; FLAG tag removed) chain 1: RAAPYGVRLCGREFIRAVIFTCGGSRW chain 2: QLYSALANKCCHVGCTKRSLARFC | 1.1

Give EC50, inhibition of forskolin stimulated β-galactosidase expression for all binders that follow.
1. Relaxin-3/INSL6 (R3/I6) chimeric polypeptide (ligand, human, disulfide (positions not given here), domain: A-chain; Two chains joined by disulfide bonds; FLAG tag removed) chain 1: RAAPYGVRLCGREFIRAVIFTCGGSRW chain 2: GYSEKCCLTGCTKEELSIAC
2. Relaxin-3/Relaxin-1 (R3/R1) chimeric polypeptide (ligand, human, disulfide (positions not given here), domain: A-chain; Two chains joined by disulfide bonds; Made in COS-7 cells with furin, FLAG tag removed with enterokinase) chain 1: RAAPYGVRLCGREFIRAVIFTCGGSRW chain 2: RPYVALFEKCCLIGCTKRSLAKYC
3. Relaxin-3/INSL5 (R3/I5) chimeric polypeptide (ligand, disulfide (positions not given here); also: two chains joined by disulfide bonds, places not given here, Two chains joined by disulfide bonds; FLAG tag removed with enterokinase; also called R3/I5 chimera; I5/R3) chain 1: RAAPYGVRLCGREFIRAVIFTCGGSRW chain 2: DLQTLCCTDGCSMTDLSALC

Resp:
1: 8.4; 2: 1.8; 3: 0.45
